Data origin: ChEMBL document CHEMBL3507680

- protocol: Human HepG2 cell viability assay in 384 well format
- Assay type: toxicity, cell-based
- Parameters: dose 125 nL, time 70.5 hour; concentration not given beside the values
- conditionLabel: HepG2 cells, read-out: Inhibition
measuredAttribute: cytotoxicity at 70.5 h (%)

compound	measuredAttribute	measurementUnits	numericReadout
Cc1cnn(CC2CCCN2CC(=O)N(C)Cc2ccsc2)c1 (stereo not given)	cytotoxicity at 70.5 h	%	-2.74
Cc1nn(C)c(N(C)C)c1CNCc1cccnc1N1CCOCC1	cytotoxicity at 70.5 h	%	-8.33
CCn1ccc(C(=O)Nc2ccc3c(c2)C(C)(C)C(=O)N3C)n1	cytotoxicity at 70.5 h	%	-15.5
Cc1nc[nH]c1C(=O)N1CCC2(CN(C)C(=O)O2)C1 (stereo not given)	cytotoxicity at 70.5 h	%	-7.68
Cc1cc2cccc(NC(=O)N3CC[C@@H]4CC[C@H](C3)N4C)c2o1	cytotoxicity at 70.5 h	%	-5.41
O=S(=O)(c1ccc(F)cc1)N1CCCn2cnc(CN3CCCC3)c2C1	cytotoxicity at 70.5 h	%	3.23
c1ccc(N2CCC(OCC3CCCCO3)CC2)nc1 (stereo not given)	cytotoxicity at 70.5 h	%	0.314
CCCNC(=O)Nc1cccc2c1CCN(S(C)(=O)=O)C2	cytotoxicity at 70.5 h	%	-1.5
O=C(c1ccccn1)N1Cc2nccn2CC(CN2CCOCC2)C1 (stereo not given)	cytotoxicity at 70.5 h	%	-10.3
Fc1ccc(C2CCCCN2Cc2cc(-c3ccccn3)no2)cc1 (stereo not given)	cytotoxicity at 70.5 h	%	17.8
c1ccc(CCN2CCc3c(ncn3C3CC3)C2)nc1	cytotoxicity at 70.5 h	%	-3.33
O=C(c1cccnn1)N1C[C@@H]2CC[C@H](Oc3cccc(F)c3)[C@@H]2C1	cytotoxicity at 70.5 h	%	14.9
Cc1cc(CN2CCOC(Cn3nc(C)cc3C)C2)on1 (stereo not given)	cytotoxicity at 70.5 h	%	-5.48
CN(C(=O)C1CSCN1S(=O)(=O)c1ccc(F)cc1)C1CC1 (stereo not given)	cytotoxicity at 70.5 h	%	-9.65
COc1ccc(CNCC2CN(C3CC3)CCO2)cc1OC (stereo not given)	cytotoxicity at 70.5 h	%	-7.17
CCN1CCCC1CNC(=O)CCSc1ccc2c(c1)OCCO2 (stereo not given)	cytotoxicity at 70.5 h	%	2.47
Cc1ccccc1-n1cnnc1SCCOCC1CCCO1 (stereo not given)	cytotoxicity at 70.5 h	%	-5
CC(NC(=O)NCCS(C)(=O)=O)c1ccc2c(c1)CCC(=O)N2 (stereo not given)	cytotoxicity at 70.5 h	%	2.87
Cc1cccc(C)c1OCC(=O)NS(=O)(=O)c1c(C)noc1C	cytotoxicity at 70.5 h	%	-14.4
CC(C)(C)c1ncc(C(=O)NCc2cccc(C(=O)N3CCCC3)c2)s1	cytotoxicity at 70.5 h	%	-1.76
Cc1cc(C(=O)NCc2cnn(C)c2C)nc(N2CCCCCC2)n1	cytotoxicity at 70.5 h	%	-3.96
CCc1nccn1C1CCCN(C(=O)C2=NN(C)C(=O)CC2)C1 (stereo not given)	cytotoxicity at 70.5 h	%	-8.58
CN(C)CCN(C)S(=O)(=O)CC1CCOCC1	cytotoxicity at 70.5 h	%	-7.41
CCN(CC1CN(CCc2ccccn2)CCO1)c1cccnn1 (stereo not given)	cytotoxicity at 70.5 h	%	-3.03
Cc1nnc2n1CCN(C(C)c1nnc(-c3cccs3)o1)C2 (stereo not given)	cytotoxicity at 70.5 h	%	-8.71
O=C(Nc1ccc2ncsc2c1)N1CCCN([C@H]2COC[C@@H]2O)CC1	cytotoxicity at 70.5 h	%	0.731
COCCN1C(=O)[C@]2(CC[C@@H]3CN(S(=O)(=O)CC(C)C)C[C@@H]32)N=C1C	cytotoxicity at 70.5 h	%	13.1
CN(C)C(c1ccccn1)[C@H]1CC[C@H](CNC(=O)C2CCCC2)CC1 (stereo not given in full)	cytotoxicity at 70.5 h	%	-2.3
COc1cc(CCNC(=O)NCCC2CCCO2)ccc1C (stereo not given)	cytotoxicity at 70.5 h	%	-9.73
COC(=O)N1CCC(NC(=O)N2CCCC2c2ccsc2)CC1 (stereo not given)	cytotoxicity at 70.5 h	%	-4.05
Cc1c[nH]c(CN(C)C(=O)c2ccc(CSc3nnc[nH]3)o2)n1	cytotoxicity at 70.5 h	%	-1.05
CC(C)c1ccc(O)c(C(=O)NCc2nncn2C)c1	cytotoxicity at 70.5 h	%	-6.12
O=C(Cc1ccccn1)N1CCC2(CC1)CN(CC1CC1)C(=O)CO2	cytotoxicity at 70.5 h	%	-5.52
O=S1(=O)C[C@@H]2[C@H](C1)N(Cc1ccc3ccccc3c1)CCN2CC1CC1	cytotoxicity at 70.5 h	%	2.29
COc1ccc(-c2nc3c([nH]2)CCNC3)c(OC)c1OC	cytotoxicity at 70.5 h	%	1.85
